// composite z-score lookup, one value per entry
# TARGET: Fibroblast growth factor 2 (Homo sapiens) (UniProt P09038)
# Sequence (P09038 whole entry, looked up): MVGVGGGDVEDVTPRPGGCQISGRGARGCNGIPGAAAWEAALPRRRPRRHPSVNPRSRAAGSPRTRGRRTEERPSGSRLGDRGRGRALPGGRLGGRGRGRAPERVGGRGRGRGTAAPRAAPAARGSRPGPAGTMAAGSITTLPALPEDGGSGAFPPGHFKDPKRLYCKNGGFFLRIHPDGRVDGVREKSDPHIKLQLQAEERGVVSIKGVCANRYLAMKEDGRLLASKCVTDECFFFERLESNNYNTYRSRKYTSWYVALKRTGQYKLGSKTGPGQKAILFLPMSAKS
# PROCEDURE_TEXT: FGF2 binders on small-molecule microarrays, primary screen, biochemical, small-molecule microarray, 635/667 nm fluorescence (AID 1133)
# REPORTED_CONDITIONS: small-molecule microarray binding, FGF2, fluorescence 635/667; higher = more signal
Please give the numeric answer without any surrounding text.

>>> print(df.to_string())
                                   molecule  reported_value
0  CCOC(=O)[C@H](CC(C)C)NC(=O)CCC1CC(OC(=O)NCCc2ccc(F)cc2)CC2(CCCC(COC(=O)NCC(c3ccccc3)c3ccccc3)O2)O1 (stereo partly drawn)           0.533

// below: composite z-score requested for another molecule
[Q] Answer with reported composite z-score of CON=CC[C@@H]1C=C[C@H](OC(C)=O)[C@@H](COC(C)=O)O1
[A] 0.495
